The measured values listed here are drawn from patent US20220040297A1.

target: T1, CD3ε homodimer protein (human, UniProt P07766 23-126, limits assumed, sulfo-tag or biotin label in some ECL assays); experiment: SPR, CD3ε homodimer on chip;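 also: biacore SPR with antibody variants flowed as analyte over amine-coupled CD3ε homodimer on a CM chip, bound amount of each single-residue H chain variant over that of parent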
T1 construct: also called human CD3ε homodimer protein; CD3 (CD3ε)
T1 sequence (P07766 23-126 limits assumed): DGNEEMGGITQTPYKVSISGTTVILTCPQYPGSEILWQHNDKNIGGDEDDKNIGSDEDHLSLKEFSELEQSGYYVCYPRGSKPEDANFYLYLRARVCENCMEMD
Label class 1 when ratio of amounts bound vs CE115HA000 is strictly below 0.6; at or above that, label class 0.

**Q:** Does CE115HA000 G98A (antibody, name in Kabat numbering, V domains shown) VH: QVQLVESGGGVVQPGRSLRLSCAASGFTFSNAWMHWVRQAPGKGLEWVAQIKAKSNNYATYYAESVKGRFTISRDDSKNSLYLQMNSLKTEDTAVYYCRYVHYAAYYGVDAWGQGTTVTVSS VL: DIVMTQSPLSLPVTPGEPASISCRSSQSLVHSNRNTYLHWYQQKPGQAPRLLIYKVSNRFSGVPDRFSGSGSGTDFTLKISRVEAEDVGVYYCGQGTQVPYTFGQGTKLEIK have ratio of amounts bound vs CE115HA000 strictly under 0.6?
**A:** class 0

**Q:** Consider the binder CE115HA000 S62K (antibody, name in Kabat numbering, V domains shown) VH: QVQLVESGGGVVQPGRSLRLSCAASGFTFSNAWMHWVRQAPGKGLEWVAQIKAKSNNYATYYAEKVKGRFTISRDDSKNSLYLQMNSLKTEDTAVYYCRYVHYGAYYGVDAWGQGTTVTVSS VL: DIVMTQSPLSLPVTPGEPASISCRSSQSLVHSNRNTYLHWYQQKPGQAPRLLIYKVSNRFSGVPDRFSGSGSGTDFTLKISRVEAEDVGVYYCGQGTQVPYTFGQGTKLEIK . Is its ratio of amounts bound vs CE115HA000 strictly less than 0.6?
**A:** class 0

**Q:** Quick check: does CE115HA000 K52bN (antibody, name in Kabat numbering, V domains shown) VH: QVQLVESGGGVVQPGRSLRLSCAASGFTFSNAWMHWVRQAPGKGLEWVAQIKANSNNYATYYAESVKGRFTISRDDSKNSLYLQMNSLKTEDTAVYYCRYVHYGAYYGVDAWGQGTTVTVSS VL: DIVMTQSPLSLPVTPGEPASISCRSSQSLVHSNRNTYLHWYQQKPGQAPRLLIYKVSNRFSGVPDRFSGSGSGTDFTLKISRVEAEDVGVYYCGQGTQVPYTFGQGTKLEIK have ratio of amounts bound vs CE115HA000 under 0.6?
**A:** class 1

**Q:** Quick check: ratio of amounts bound vs CE115HA000 of CE115HA000 Q50L (antibody, name in Kabat numbering, V domains shown) VH: QVQLVESGGGVVQPGRSLRLSCAASGFTFSNAWMHWVRQAPGKGLEWVALIKAKSNNYATYYAESVKGRFTISRDDSKNSLYLQMNSLKTEDTAVYYCRYVHYGAYYGVDAWGQGTTVTVSS VL: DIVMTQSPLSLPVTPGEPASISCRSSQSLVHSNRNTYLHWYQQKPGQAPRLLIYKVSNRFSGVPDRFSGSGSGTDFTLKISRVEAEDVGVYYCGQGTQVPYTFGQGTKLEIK under 0.6?
**A:** class 1
